Answer each item with its documented z-score.
assay.method.text: inhibitors of hydroxyurea-induced Chk1 phosphorylation, primary screen, imaging, HeLa, phospho-Chk1 antibody, percent positive cells (AID 1186)
condition.description: hydroxyurea-induced phospho-Chk1 immunofluorescence imaging, higher = more signal
The source made the active and inactive calls. No rule for the calls is given here.

>  <compound>
COc1cc(NN2C(C(O)C3CCCCC3)C=CC3C(=O)N(C)C(=O)C32)cc(OC)c1OC (stereo not given)

>  <test.value>
0.281 (inactive)

$$$$

Please look at the items below and tell me z-score for each one, in order.
1. O=c1cccc(-c2ccco2)o1
2. CC1(C)C(=O)C(c2ccccc2)=C2CN3C(=O)N(CCc4ccccc4)C(=O)C3(Cc3ccc(F)cc3)C=C21 (stereo not given)
3. CCOC(=O)C=Cc1cc(F)ccc1O
4. COc1cc2c(cc1OC)CN(C(=O)[C@@H]1[C@H]3C(=O)O[C@H](c4ccccc4)[C@H](c4ccccc4)N3[C@H](c3ccc(O)cc3)[C@@]13C(=O)Nc1ccc(C#CCCO)cc13)CC2
5. COC(=O)C(CC#Cc1ccc2c(c1)[C@]1(C(=O)N2)[C@H](c2ccc(O)cc2)N2[C@H](c3ccccc3)[C@H](c3ccccc3)OC(=O)[C@H]2[C@@H]1C(=O)N1CCCCCCC1)C(=O)OC
6. CC1(C)C(=O)C(c2ccccc2)=C2CN3C(=O)N(CCc4ccccc4)C(=O)C3(Cc3ccc(C(F)(F)F)cc3)C=C21 (stereo not given)
7. COCC1=C2[C@@H](CCc3ccccc3)OB(O)C[C@@H]2[C@@H]2C(=O)N(C)C(=O)[C@@H]2C1
8. C=CCC(OC(C)=O)[C@@H]1[C@@H](N(Cc2cccc3ccccc23)C(=O)Cc2ccc(F)cc2)c2cc(OCCCO)ccc2N1C(=O)c1ccc(-c2ccccc2)cc1 (stereo not given in full)

Ans.
1: 0.0593 (inactive); 2: 0.478 (inactive); 3: 0.631 (inactive); 4: 0.189 (inactive); 5: -0.0422 (inactive); 6: 0.175 (inactive); 7: 0.684 (inactive); 8: 0.19 (inactive)

Please look at the items below and tell me z-score for each one, in order.
1. CC(C)(C)OC(=O)CC[C@]12N=C(c3ccc(OCCCO)cc3)O[C@H]1c1ccccc1N(Cc1ccccc1)C2=O
2. O=C1C2C=CC(C(O)c3ccc4c(c3)OCO4)N(Nc3ccccc3)C2C(=O)N1c1ccccc1 (stereo not given)
3. O=C1C2C=CC(C(O)c3ccco3)N(Nc3ccccc3)C2C(=O)N1c1ccccc1 (stereo not given)
4. COc1cccc(/C=C(\C#N)C(=O)Nc2c(C)n(C)n(-c3ccccc3)c2=O)c1
5. COc1ccc([Si](C)(C)[C@@H]2[C@@H](CCn3cc([C@H](O)c4ccccc4)nn3)O[C@]3(C(=O)N(c4ccccc4)c4ccccc43)[C@H]2C)cc1

Ans.
["-0.022 (inactive)", "0.104 (inactive)", "0.209 (inactive)", "-0.252 (inactive)", "-0.431 (inactive)"]

Please look at the items below and tell me z-score for each one, in order.
1. C=CCC(OC(C)=O)[C@@H]1[C@@H](N(Cc2ccc(-c3cccc(C(F)(F)F)c3)o2)C(=O)c2cccc3ccccc23)c2cc(OCCCO)ccc2N1C(=O)Cc1ccc(OC)cc1 (stereo not given in full)
2. COC(=O)c1c2oc(c1C(=O)OC)C(=O)N1CCC[C@H]1Cn1nncc1CN(Cc1ccccc1)C(=O)N[C@H](CO)CC2
3. CC(C)CCC[C@@H](C)[C@H]1CC[C@@]2(C)C3=C(CC[C@]12C)[C@@]1(C)CC[C@H](OC(=O)c2ccccc2)C(C)(C)C1CC3 (stereo not given in full)
4. C[C@@]12COC[C@]13C=C(Br)[C@H](C2)[C@@]1(CO1)C3=O
5. COc1ccc([Si](C)(C)[C@@H]2[C@@H](CC(=O)N3Cc4ccccc4C[C@H]3CO)O[C@]3(C(=O)N(Cc4ccc(N5CCC5=O)cc4)c4ccccc43)[C@H]2C)cc1
6. COCCOC(=O)N1C(=O)[C@@]2(c3cc(C#CCNC(N)=O)ccc31)[C@H](c1ccc(O)cc1)N1[C@H](c3ccccc3)[C@H](c3ccccc3)OC(=O)[C@H]1[C@@H]2C(N)=O
7. Cc1ccccc1C(O)C1C=CC2C(=O)N(c3ccccc3)C(=O)C2N1Nc1ccc([N+](=O)[O-])cc1 (stereo not given)
8. CN(C)C(=O)[C@@]1(CCC(=O)OC(C)(C)C)N=C(c2ccc(OCCCO)cc2)O[C@H]1c1ccccc1CN=[N+]=[N-]

Ans.
1. -0.48 (inactive)
2. 0.159 (inactive)
3. -0.531 (inactive)
4. -0.0927 (inactive)
5. -0.169 (inactive)
6. -0.0933 (inactive)
7. -0.0666 (inactive)
8. 0.234 (inactive)

Please look at the items below and tell me z-score for each one, in order.
1. CN1C(=O)C2C(C1=O)C1C=C(CCCO)C2C(C2CC2)N1Cc1cc2c(cc1Br)OCO2 (stereo not given)
2. Cc1ccc(N2C(=O)c3ccccc3[C@](C)(C(=O)NCc3ccccc3)[C@@H]2c2ccc(CO)cc2)nc1
3. O=C1OCCC=C[C@H]2OC34C=CCN(c5ccc(Cl)cc5)C(=O)[C@H]3N(CCCCCCO)C(=O)[C@@H]4C12 (stereo not given in full)
4. C=CCN1C(=O)[C@]2(O[C@H](CCO)[C@@H]([Si](C)(C)c3ccc(OC)cc3)[C@@H]2C)c2cc(NC(=O)c3ccc(OC)cc3)ccc21
5. C=CCNC(=O)[C@@H]1[C@H]2C(=O)O[C@H](c3ccccc3)[C@H](c3ccccc3)N2[C@H](c2ccc(O)cc2)[C@@]12C(=O)Nc1ccc(C#CCC(C(=O)OC)C(=O)OC)cc12
6. COc1ccc(CCNC(=O)[C@@]2(Cc3ccccc3I)c3ccccc3C(=O)N(Cc3ccccc3Cl)[C@H]2c2ccc(CO)cc2)cc1
7. CN(C)C(=O)[C@]1(CCS(=O)(=O)c2ccccc2)N=C(c2ccc(OCCCO)cc2)O[C@@H]1c1ccccc1
8. Cc1ccc([C@H]2C(C(=O)O)=C[C@@H](C(C)(C)C)N2S(=O)(=O)c2ccc(C)cc2)cc1

Ans.
0.498 (inactive)
-0.0668 (inactive)
-0.301 (inactive)
-0.97 (inactive)
-0.267 (inactive)
0.207 (inactive)
-0.161 (inactive)
0.695 (inactive)
